- Test system: CCRIS mutagenicity, Ames/micronucleus/aberration tests
- Method: CCRIS mutagenicity studies
- Measurement context: Test System: AMES SALMONELLA TYPHIMURIUM; Strain/Indicator: TA100; Metabolic Activation: NONE; Method: PREINCUBATION
Active and inactive are the calls of the source. The rule behind the calls is not given here.
Select the correct class. Options are 1.0 for active, 0.0 for inactive and nothing else.

The following compounds have reported results that may help.
Per the assay record, what outcome was assigned to "CCc1ccc([N+](=O)[O-])cc1" ?
0.0

Also, "C=C(C=O)CC" please.
1.0

Try "C1COCCO1" next.
0.0

// same read-out, input: "Cc1ccc(OP(=O)(Oc2ccc(C)cc2C)Oc2ccc(C)cc2C)c(C)c1"
0.0

Also check "O=C/C=C/c1ccc([N+](=O)[O-])o1"
1.0

Would you kindly repeat that for "Cc1cc2ccccc2c2ccc3c(c12)[C@H]1O[C@H]1[C@@H](O)[C@@H]3O" ?
1.0

What about "NC(N)=NC(=O)c1nc(Cl)c(N)nc1N" ?
0.0

What do you get for "Nc1cc(S(=O)(=O)O)ccc1O" ?
0.0

---
// outcome(item) with item = CC(CN1c2ccccc2Sc2ccccc21)N(C)C (stereo unspecified)
0.0

Also need "CS(C)=O" , thanks.
0.0

Repeat for the following compound: c1ccc(C2CO2)cc1 (stereo unspecified)
1.0

Thanks! And "CCOP(=S)(OCC)SCSCC" ?
0.0

---

- Test system: CCRIS mutagenicity, Ames/micronucleus/aberration tests
- Method: CCRIS mutagenicity studies
- Measurement context: Test System: AMES SALMONELLA TYPHIMURIUM; Strain/Indicator: TA1538; Metabolic Activation: RAT, LIVER, S-9, PHENOBARBITAL; Method: STANDARD PLATE
Activity calls are given as the source filed them. The rule behind the calls is not given here.
Use one of these outcomes when replying: YES (active), NO (inactive)

Recorded call for "Cc1c2ccncc2c(C)c2c1[nH]c1ccc(N)cc12" ?
YES

Next compound: "O=[N+]([O-])c1cccc2c1[nH]c1ccccc12"
YES

Repeat for the following compound: "Nc1ccc2cc3ccccc3cc2c1"
YES

And the next one, "Nc1cc2c(cc1[N+](=O)[O-])[nH]c1ccccc12" ?
YES

How about this compound: "CC(=O)Nc1ccc2[nH]c3ccccc3c2c1"
YES

Now consider "c1ccc2c(c1)ccc1nc3ccc4ccccc4c3cc12" .
YES

Others:
Field: outcome | Entry: "Nc1ccc(-c2ccccc2)cc1"
YES

Thanks! And "Cl" ?
NO

Could you do the same for "C[n+]1ccccc1-c1cccc[n+]1C" , please?
NO

Try this compound next: "O=[N+]([O-])c1cccc2[nH]c3ccccc3c12"
YES

Please give the result for "CC(=O)Nc1ccc2c(c1)Cc1cc(NC(C)=O)ccc1-2" too.
YES

---

- System: CCRIS mutagenicity, Ames/micronucleus/aberration tests
- Method: CCRIS mutagenicity studies
- Measurement context: Test System: AMES SALMONELLA TYPHIMURIUM; Strain/Indicator: TA98; Metabolic Activation: NONE; Method: STANDARD PLATE
Calls of active or inactive are those of the source. No rule for the calls is given here.
Hi! Could you answer with just one of these? Y for active, N for inactive

Known results for compounds:
Hi, sorry to bother you, what did the test record for O=[N+]([O-])c1ccc2c3c4c(cccc4c4ccccc4c13)C1OC21 (stereo not drawn) ?
Y

For C=CC(C)(C)c1cc2cc3c(cc2oc1=O)OC(C(C)(C)OC(C)=O)C3 (stereo not drawn) then?
N

# iterate: "CC(=O)c1oc([N+](=O)[O-])c(Cl)c1Cl"
Y

Next:
Answer briefly: the call reported for "CC(=O)Nc1ccc2c(=O)c(=O)c3cccc4ccc1c2c43" in this assay.
N

Next entry: "C1CSCSC1"
Y

// query: "O=[N+]([O-])c1cccc2cn[nH]c12"
Y

Ok, now "NC(=O)c1cc(N2CC2)c([N+](=O)[O-])cc1[N+](=O)[O-]"
N

Further, for "OCl" ?
N

Moving on to "N=C1C=CC(=C(c2ccc(N)cc2)c2ccc(N)cc2)C=C1"
Y

Moving on to the next compound: "CCOP(=S)(OCC)SCSCC"
N

What would you report for "COc1ccc([N+](=O)[O-])c2c(NCCCN(C)C)c3ccccc3nc12" ?
Y

Query "CCCCOC(=O)CCCCCCCCC(=O)OCCCC" next
N

Same read-out for O=C1OC(O)C(C(Br)Br)=C1Cl (stereo not drawn) ?
Y

Repeat with c1ccc2c(c1)-c1cc3ccc4ccccc4c3cc1C1OC21 (stereo not drawn)
N

What do you have for NC(=O)C1(C(N)=O)OC1C(=O)c1ccccc1 (stereo not drawn) ?
N

Same read-out for "O=[N+]([O-])c1ccc2c(c1)nc(/C=N/OCc1ccccc1[N+](=O)[O-])n2Cc1ccccc1" ?
Y

---

- Tested on: CCRIS mutagenicity, Ames/micronucleus/aberration tests
- Method: CCRIS mutagenicity studies
- Measurement context: Test System: AMES SALMONELLA TYPHIMURIUM; Strain/Indicator: TA98; Metabolic Activation: RAT, LIVER, S-9; Method: PREINCUBATION
Activity calls are given as the source filed them. The rule behind the calls is not given here.
Outcomes you can answer with include only these: 1 = active, 0 = inactive

Use these answered entries as a reference point.
How was "CC(C)(C)c1cc(/C=C/c2cc(C(C)(C)C)c(O)c(C(C)(C)C)c2)cc(C(C)(C)C)c1O" classified in this test?
0

// query: "Cc1cc2ccccc2c2cc([N+](=O)[O-])c3ccccc3c12"
1

Item: "O=[N+]([O-])c1ccc2ncccc2c1"
1

Others:
Which outcome was entered for the compound CCN(CC)CCCC(C)Nc1ccnc2cc(Cl)ccc12 (stereo unspecified) in this test?
0

Also check "CC/C(=C(/c1ccc(OCCN(C)C)cc1)c1ccc(OP(=O)(O)O)cc1)c1ccc(C(C)C)cc1"
0

Same question, "O=C(O)C(F)(F)C(F)(F)C(F)(F)C(F)(F)C(F)(F)C(F)(F)C(F)(F)C(F)(F)C(F)(F)F" this time
0

---

- Tested on: CCRIS mutagenicity, Ames/micronucleus/aberration tests
- Method: CCRIS mutagenicity studies
- Measurement context: Test System: AMES SALMONELLA TYPHIMURIUM; Strain/Indicator: TA98(1,8-DNP6); Metabolic Activation: RAT, LIVER, S-9, PCB (5%); Method: PREINCUBATION
Calls of active or inactive are those of the source. The rule behind the calls is not given here.
Classes to choose from: active, inactive

I would be grateful if you could indicate the recorded call for "O=[N+]([O-])c1ccc2c(c1)oc1ccccc12" .
active

Same again, this time with "O=[N+]([O-])c1ccc2c(c1)Oc1ccccc1O2"
active

Now the same for "O=[N+]([O-])c1ccc2c(c1)Oc1ccc([N+](=O)[O-])cc1O2"
active

Consider the record given below.
Short answer needed: outcome of this test for "O=[N+]([O-])c1cccc2oc3ccccc3c12" ?
inactive

---

- Tested on: CCRIS mutagenicity, Ames/micronucleus/aberration tests
- Method: CCRIS mutagenicity studies
- Measurement context: Test System: AMES SALMONELLA TYPHIMURIUM; Strain/Indicator: TA100; Metabolic Activation: RAT, LIVER, S-9, AROCLOR 1254; Method: STANDARD PLATE
The source made the active and inactive calls. How the calls were made is not given here.
Observation type: mutagenic call

Some entries whose results are on file:
Fill in: mutagenic call of "CC(=O)Nc1ccc(O)cc1" is ___
inactive; negative

Request: "O=C(O)/C(Cl)=C(\C(=O)O)C(Cl)Cl"
inactive; negative

Now the same for "Cc1cc(N(C)C)ccc1N=Nc1ccccc1"
active; positive

Same question, "CCc1ccc2c(c1[N+](=O)[O-])C(=O)c1ccccc1C2=O" this time
active; positive

Try this compound next: "O=[N+]([O-])c1cccc(NS(=O)(=O)c2cccc3cccnc23)c1"
inactive; negative

Further, for "O=[N+]([O-])c1ccc2ccc3cc4c(c5ccc1c2c35)C=CCC4" ?
active; positive

// switching to the query compound
Any idea what mutagenic call was measured for "O=C(C(=O)c1ccccc1)c1ccccc1" ?
inactive; negative

---

- Tested on: CCRIS mutagenicity, Ames/micronucleus/aberration tests
- Method: CCRIS mutagenicity studies
- Measurement context: Test System: UDS HUMAN HEPATOCYTES; Strain/Indicator: THY INCORP; Metabolic Activation: NONE; Method: AUTORADIOGRAPHY
Activity calls are given as the source filed them. No rule for the calls is given here.
Respond using exactly one of the listed classes: active, inactive

The examples below pair each entry with its known result.
Please state the recorded outcome for this molecule: CC(C)N(CC(O)COc1ccc(CC(N)=O)cc1)N=O (configuration not stated)
active

Next record, please: CC(C)NCC(O)COc1ccc(CC(N)=O)cc1 (configuration not stated)
inactive

"CCN(CC)CCNC(=O)c1ccc(N)cc1" ?
inactive

***
Each molecule tested received a call. Report the one for "CCCCCC=O" .
inactive

Here is the next molecule: "COc1cc2c(c3oc(=O)c4c(c13)CCC4=O)[C@@H]1C=CO[C@@H]1O2"
active

Do the same for "CCC=O" please
inactive

Next up: "Cc1c(N)nc(C)c2c1[nH]c1ccccc12"
active

FYI, the data here is from PubChem BioAssay AID1259407.
